B1: glmS ribozyme (parent)
chain: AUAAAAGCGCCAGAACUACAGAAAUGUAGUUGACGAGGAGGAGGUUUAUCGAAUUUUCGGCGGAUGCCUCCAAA

variants of: B1; assay: kcat; higher = faster cleavage; RNA array; conditions: with glucosamine-6-phosphate
Fewer inactive variants are shown than the library holds.
Answer class 0 if kcat is under 0.0002 s⁻¹, and class 1 if it is 0.0002 s⁻¹ or more.

Q. Exam item: decide whether the reported kcat for U31G G62U C71G is at least 0.0002 s⁻¹.
A. class 0

Q. Say whether U69A C70U shows kcat of 0.0002 s⁻¹ or more.
A. class 0

Q. For this variant, is measured kcat 0.0002 s⁻¹ or higher? G51U U55G
A. class 0

Q. Threshold query (kcat >= 0.0002 s⁻¹) on C16G A33G
A. class 0

Q. Dear colleague, could you confirm whether C10G C67A has kcat at or above 0.0002 s⁻¹?
A. class 0

Q. Textbook exercise: given the entry A14G A15U U30G , state whether its kcat is greater than or equal to 0.0002 s⁻¹.
A. class 1

Q. Is it the case that G7U C67G has kcat reaching or exceeding 0.0002 s⁻¹?
A. class 0

Q. Could you please find out whether G13A U49C has kcat that meets 0.0002 s⁻¹ or exceeds it?
A. class 0

Q. hey, is kcat for this one >= 0.0002 s⁻¹? U31G C34A G37U C67U
A. class 0

Q. API: above_or_equal(metric=kcat, cutoff=0.0002 s⁻¹) for item A48C C67A
A. class 0

Q. kcat >= 0.0002 s⁻¹ for C16U G43A ?
A. class 0

Q. Does kcat meet or surpass 0.0002 s⁻¹ for A33U C61G ?
A. class 0

Q. Kindly determine if kcat recorded for U30C C67U is above or exactly 0.0002 s⁻¹.
A. class 0

Q. Determine whether measured kcat meets or exceeds 0.0002 s⁻¹ for A14C U54G
A. class 1

Q. Item A14C U55C with kcat of 0.0002 s⁻¹ or above?
A. class 1

Q. Form field: kcat at least 0.0002 s⁻¹? Entry: C16U G43U
A. class 0

Q. Does the variant A15C G41C have recorded kcat that is 0.0002 s⁻¹ or more?
A. class 0

Q. Is reported kcat greater than or equal to 0.0002 s⁻¹ here: U56A C70G
A. class 0

Q. Reported kcat at or above 0.0002 s⁻¹? A12G C67A
A. class 1

Q. Check this variant for kcat at or above 0.0002 s⁻¹: C50G G60A
A. class 0

Q. // inclusive: kcat at least 0.0002 s⁻¹? input: C11U A53G
A. class 1

Q. Please check the record U54G U69A and state if its kcat is at or above 0.0002 s⁻¹.
A. class 0

Q. Confirm if kcat reported for the variant A12C A15U C16U C70U is 0.0002 s⁻¹ or above.
A. class 0

Q. Record G13U U30A ; criterion: kcat no lower than 0.0002 s⁻¹. Met?
A. class 0

Q. Determine whether this variant has kcat no lower than 0.0002 s⁻¹: C11U G38A G41A A42G
A. class 0

Q. Does the reported kcat for G29A G66U fall at or above the 0.0002 s⁻¹ mark?
A. class 0

Q. Test whether the variant A15C C16U records kcat of 0.0002 s⁻¹ or higher.
A. class 1

Q. Textbook exercise: given the entry G29A U31A , state whether its kcat is greater than or equal to 0.0002 s⁻¹.
A. class 1

Q. // inclusive: kcat at least 0.0002 s⁻¹? input: A15U C16G C50G A52G
A. class 0

Q. kcat >= 0.0002 s⁻¹ for U56G G66A ?
A. class 1

Q. Quick check, kcat >= 0.0002 s⁻¹? U57A U69G
A. class 0

Q. Hi, just wondering whether A12U U46A shows kcat of 0.0002 s⁻¹ or higher.
A. class 1

Q. Is kcat at least 0.0002 s⁻¹? Consider U45A C58A
A. class 1
